# STUDY_SYSTEM: T1, MBP-RGS4Δ51N, wild type, biotinylated (UniProt P49799 52-205, biotin (sites not given))
# T1 construct: RGS4 from which the amphipathic N-terminal helix has been removed (RGS4Δ51N); Rat RGS4 is surmised from the group's earlier work; His6 lies between MBP and RGS4 (MBP-His6-RGS4Δ51N) with a TEV site; also called wild type RGS4-biotin; biotin-RGS4; source: expressed, purified and labeled as described previously [5]; not shown: MBP, N-terminal, kept
# T1 sequence (looked up): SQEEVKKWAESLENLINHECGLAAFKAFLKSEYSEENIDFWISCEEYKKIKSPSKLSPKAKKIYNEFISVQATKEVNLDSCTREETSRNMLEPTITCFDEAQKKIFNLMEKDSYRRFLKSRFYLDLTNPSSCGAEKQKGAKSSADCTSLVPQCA
# PROCEDURE_SUMMARY: FCPIA (flow cytometry protein interaction assay, Luminex beads); competition at one peptide concentration (50 μM unless the cell says otherwise); 5 nM wild type RGS4-biotin on avidin beads, 25 nM Gαo-Alexa Fluor 532, with AMF (AlCl3, MgCl2, NaF and GDP)
# EXPERIMENTAL_PARAMETERS: both partners purified
Bridges are numbered along the chain shown (N, C = ends).
ENDPOINT_NAME: % inhibition of RGS4-Gαo (%)

1) H-YWCKGLCK-NH2 (disulfide 3-7; SMILES CC(C)C[C@@H]1NC(=O)CNC(=O)[C@H](CCCCN)NC(=O)[C@@H](NC(=O)[C@H](Cc2c[nH]c3ccccc23)NC(=O)[C@@H](N)Cc2ccc(O)cc2)CSSC[C@@H](C(=O)N[C@@H](CCCCN)C(N)=O)NC1=O, hit peptide from the focused OBOC library screen; also called peptide 7nd in Roof et al, 2008; hit 5; source: synthetic peptide) [Peptide 5nd (Tyr-Trp-c[Cys-Lys-Gly-Leu-Cys]-Lys-NH2, S-S)] : 80
2) H-GTCFGTCW-NH2 (disulfide 3-7 (inferred), hit peptide from the focused OBOC library screen; also called hit 2; source: synthetic peptide) [Peptide 2nd (GTCFGTCW-NH2, S-S)] : 19
